# TGT: Androgen receptor (Rattus norvegicus, UniProt P15207)
QUANTITY: log10 of IC50 (log10 of the value in nM)
The common logarithm of IC50 in nM is what is listed.

Form field, log10 of IC50 with Androgen receptor (Rattus norvegicus, UniProt P15207), item CC(O)[C@@]1(O)CC[C@H]2[C@@H]3CCC4N(C)C(=O)CC[C@]4(C)[C@H]3CC[C@@]21C (some centres not stated) : 3.28

With Androgen receptor (Rattus norvegicus, UniProt P15207) as the test system, CN1C(=O)C=C[C@]2(C)[C@H]3CC[C@]4(C)[C@@H](C(N)=O)CC[C@H]4[C@@H]3CC[C@@H]12 showed log10 of IC50 of 2.18

Test item CC(C#N)[C@H]1CC[C@H]2[C@@H]3CCC4N(C)C(=O)CC[C@]4(C)[C@H]3CC[C@]12C (some centres not stated) ; Androgen receptor (Rattus norvegicus, UniProt P15207); reported log10 of IC50 was 2.46

Others:
Summary line: C[C@]12CC[C@H]3[C@@H](CCC4=CC(=O)CC[C@@H]43)[C@@H]1CC[C@@]21CCCO1 , Androgen receptor (Rattus norvegicus, UniProt P15207), reported log10 of IC50 = 1.48

Result for COC(=O)C(C)[C@H]1CC[C@H]2[C@@H]3CCC4N(C)C(=O)C=C[C@]4(C)[C@H]3CC[C@]12C (some centres not stated) , tested on Androgen receptor (Rattus norvegicus, UniProt P15207), log10 of IC50: 2.43

* * *

# TGT: Steroid 5-alpha-reductase (Rattus norvegicus, UniProt P24008+P31214)
# Sequence (P24008 whole entry): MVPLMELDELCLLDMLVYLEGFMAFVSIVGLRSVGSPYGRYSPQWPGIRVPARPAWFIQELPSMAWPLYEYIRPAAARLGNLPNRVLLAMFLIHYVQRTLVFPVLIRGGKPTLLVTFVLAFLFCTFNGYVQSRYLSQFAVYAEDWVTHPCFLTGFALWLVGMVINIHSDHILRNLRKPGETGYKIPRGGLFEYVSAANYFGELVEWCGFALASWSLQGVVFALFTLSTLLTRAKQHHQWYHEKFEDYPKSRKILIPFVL
# Sequence (P31214 whole entry): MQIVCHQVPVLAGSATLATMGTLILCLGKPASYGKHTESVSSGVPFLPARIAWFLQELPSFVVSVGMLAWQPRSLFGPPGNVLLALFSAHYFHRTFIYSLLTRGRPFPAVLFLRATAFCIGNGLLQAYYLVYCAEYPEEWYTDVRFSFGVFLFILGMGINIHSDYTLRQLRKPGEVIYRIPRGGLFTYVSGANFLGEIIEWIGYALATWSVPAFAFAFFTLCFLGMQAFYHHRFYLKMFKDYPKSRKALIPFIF
# PROCEDURE_DETAILS: In vitro inhibitory activity against rat prostatic steroid 5-alpha-reductase
# Assay type: protein assay
# IC50 per entry
The reply should contain only the number, in nM.

// CN1C(=O)CC[C@@]2(C)C1CC[C@H]1[C@@H]3CC[C@H](C(=O)[O-])[C@@]3(C)CC[C@@H]12.[Na+] (some centres not stated) : IC50 value = 37

Entry CC(O)[C@H]1[C@H](C)C[C@H]2[C@@H]3CCC4N(C)C(=O)CC[C@]4(C)[C@H]3CC[C@@]21C (some centres not stated) ; IC50 = 2.8

Measured IC50, CC(C)N(C(=O)[C@H]1CC[C@H]2[C@@H]3CCC4NC(=O)CC[C@]4(C)[C@H]3CC[C@]12C)C(C)C (some centres not stated) : 11

Sample COC(=O)[C@H]1CC[C@H]2[C@@H]3CCC4N(C)C(=O)CC[C@]4(C)[C@H]3CC[C@]12C (some centres not stated) ; IC50 observed: 7.6

Short answer for CCN(CC)C(=O)[C@H]1CC[C@H]2[C@@H]3CC[C@H]4N(C)C(=O)C[C@H](C)[C@]4(C)[C@H]3CC[C@]12C : IC50 was 86

response.value for CCN(CC)C(=O)[C@H]1CC[C@H]2[C@@H]3CC[C@H]4N(C)C(=O)C(=O)C[C@]4(C)[C@H]3CC[C@]12C (field: IC50) = 340

IC50 measured on C[C@]12CCC(=O)NC1CC[C@@H]1[C@@H]2CC[C@@]2(C)[C@H]1CC[C@@]21CCCO1 (some centres not stated) = 93

Record CCN(CC)C(=O)[C@H]1CC[C@H]2[C@@H]3CC[C@H]4N(C)C(=O)[C@H](O)C[C@]4(C)[C@H]3CC[C@]12C , field IC50: 460

Notebook: CCCCCCCCN(CCCCCCCC)C(=O)[C@H]1CC[C@H]2[C@@H]3CCC4N(C)C(=O)CC[C@]4(C)[C@H]3CC[C@]12C (some centres not stated) , IC50 read as 33

The compound CN1C(=O)CC[C@@]2(C)C1CC[C@H]1[C@@H]3CC[C@H](C(=O)NC(C)(C)C)[C@@]3(C)CC[C@@H]12 (some centres not stated) showed IC50 equal to 0.56

More entries:
Briefly, IC50 measured for COC(=O)C(C)[C@H]1CC[C@H]2[C@@H]3CCC4N(C)C(=O)CC[C@]4(C)[C@H]3CC[C@]12C (some centres not stated) : 22

response.value for CCN(CC)C(=O)[C@H]1CC[C@H]2[C@@H]3CC=C4N(N)C(=O)CC[C@]4(C)[C@H]3CC[C@]12C (field: IC50) = 36

IC50 measured on CC(C)N(C(=O)[C@H]1CC[C@H]2[C@@H]3CC[C@H]4N(C)C(=O)CC[C@]4(C)[C@H]3CC[C@]12C)C(C)C = 3.5

The compound listed as CN1C(=O)CC[C@@]2(C)C1CC[C@@H]1[C@@H]2CC[C@@]2(C)[C@H]1CC[C@@]21CCC(=O)O1 (some centres not stated) shows IC50 equal to 40

For CN1C(=O)CC[C@@]2(C)C1CC[C@H]1[C@@H]3CC[C@H](C(=O)NCCO)[C@@]3(C)CC[C@@H]12 (some centres not stated) the compound record lists IC50 as 93

* * *

In this section we review reported IC50 values for a set of molecules.
# TGT: Steroid 5-alpha-reductase (Rattus norvegicus, UniProt P24008+P31214)
# PROCEDURE_DETAILS: In vitro inhibitory activity against rat prostatic steroid 5-alpha-reductase
# Format: protein assay

The recorded IC50 for CNC(=O)[C@H]1CC[C@H]2[C@@H]3CCC4N(C)C(=O)CC[C@]4(C)[C@H]3CC[C@]12C (some centres undefined) is 38 nM

In plain terms, CC(C)N(C(=O)[C@H]1CC[C@H]2[C@@H]3CCC4N(C)C(=O)C=C[C@]4(C)[C@H]3CC[C@]12C)C(C)C (some centres undefined) has a documented IC50 of 430 nM

Field IC50 (entry CCN(CC)C(=O)[C@H]1CC[C@H]2[C@@H]3CC[C@@H]4NC(=O)CC[C@]4(C)[C@H]3CC[C@]12C (stereo in doubt; 9x) ) reads 41 nM

So, C[C@]12CC[C@H]3[C@@H](CCC4NC(=O)CC[C@@]43C)[C@@H]1CC[C@@H]2C(=O)[O-].[K+] (some centres undefined) ? Its IC50 was 25 nM

IC50 reading for CCC(C)C(=O)[C@H]1CC[C@H]2[C@@H]3CCC4NC(=O)CC[C@]4(C)[C@H]3CC[C@]12C (some centres undefined) : 1.2 nM

Recorded IC50 (molecule CN1C(=O)CC[C@@]2(C)C1CC[C@H]1[C@@H]3CC[C@H](C(=O)N4CCOCC4)[C@@]3(C)CC[C@@H]12 (some centres undefined) ): 27 nM

IC50 for CCN(CC)C(=O)[C@H]1CC[C@H]2[C@@H]3CC=C4N(O)C(=O)CC[C@]4(C)[C@H]3CC[C@]12C is 220 nM

* * *

# TGT: Androgen receptor (Rattus norvegicus, UniProt P15207)
# Sequence (P15207 whole entry): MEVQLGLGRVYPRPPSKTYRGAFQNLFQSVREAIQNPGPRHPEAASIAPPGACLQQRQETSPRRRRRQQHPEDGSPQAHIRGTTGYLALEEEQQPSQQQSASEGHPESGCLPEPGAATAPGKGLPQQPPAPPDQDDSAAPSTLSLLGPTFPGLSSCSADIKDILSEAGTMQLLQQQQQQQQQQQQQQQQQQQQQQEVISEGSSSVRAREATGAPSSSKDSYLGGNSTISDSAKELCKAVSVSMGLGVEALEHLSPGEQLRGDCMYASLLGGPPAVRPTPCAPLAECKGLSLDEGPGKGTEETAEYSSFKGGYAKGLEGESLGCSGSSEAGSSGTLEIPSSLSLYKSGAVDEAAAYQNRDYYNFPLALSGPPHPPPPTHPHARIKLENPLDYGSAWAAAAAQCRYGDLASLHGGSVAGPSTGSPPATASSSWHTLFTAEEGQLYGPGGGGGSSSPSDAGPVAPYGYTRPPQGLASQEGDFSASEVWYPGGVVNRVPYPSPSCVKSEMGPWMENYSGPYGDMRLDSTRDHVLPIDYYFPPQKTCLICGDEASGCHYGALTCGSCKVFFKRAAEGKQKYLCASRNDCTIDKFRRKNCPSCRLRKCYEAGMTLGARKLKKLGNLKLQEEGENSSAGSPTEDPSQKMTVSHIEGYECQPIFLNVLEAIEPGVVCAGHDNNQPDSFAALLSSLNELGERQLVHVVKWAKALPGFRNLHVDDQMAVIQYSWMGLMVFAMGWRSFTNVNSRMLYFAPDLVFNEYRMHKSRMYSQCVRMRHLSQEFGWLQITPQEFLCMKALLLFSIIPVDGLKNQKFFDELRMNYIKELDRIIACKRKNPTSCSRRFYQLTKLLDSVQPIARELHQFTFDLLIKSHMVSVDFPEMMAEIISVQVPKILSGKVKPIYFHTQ
Each entry below lists one item and its recorded IC50 value.

Reference set, count: 8
Reported IC50 of C[C@]12CC[C@H]3[C@@H](CCC4NC(=O)C=C[C@@]43C)[C@@H]1CC[C@@H]2C(=O)Sc1ccccn1 (some centres undefined) : > 10000 nM

The recorded IC50 for CCN(CC)C(=O)[C@H]1CC[C@H]2[C@@H]3CC[C@@H]4NC(=O)CC[C@]4(C)[C@H]3CC[C@]12C (stereo in doubt; 9x) is > 100000 nM

The recorded IC50 for C[C@]12CCC(=O)CC1CC[C@@H]1[C@@H]2CC[C@@]2(C)[C@H]1CC[C@@]21CCCO1 (some centres undefined) is 23 nM

The compound listed as CCN(CC)C(=O)[C@H]1CC[C@H]2[C@@H]3CCC4=C(C#N)C(=O)CC[C@]4(C)[C@H]3CC[C@]12C has a reported IC50 of 1300 nM

Summary for this compound, CNC(=O)[C@H]1CC[C@H]2[C@@H]3CCC4N(C)C(=O)CC[C@]4(C)[C@H]3CC[C@]12C (some centres undefined) : IC50 is 1100 nM

Note to self: IC50 recorded for C[C@]12CC[C@H]3[C@@H](CCC4NC(=O)CC[C@@]43C)[C@@H]1CC[C@@H]2O (some centres undefined) was 930 nM

Please fill in: IC50 reported for CC(C)(C)NC(=O)[C@H]1CC[C@H]2[C@@H]3CCC4NC(=O)CC[C@]4(C)[C@H]3CC[C@]12C (some centres undefined) = > 100000 nM

Quick note, IC50 for CC(CO)[C@H]1CC[C@H]2[C@@H]3CCC4N(C)C(=O)CC[C@]4(C)[C@H]3CC[C@]12C (some centres undefined) landed at 860 nM

New cases:
For this compound ( CC(C(=O)[O-])[C@H]1CC[C@H]2[C@@H]3CCC4N(C)C(=O)CC[C@]4(C)[C@H]3CC[C@]12C.[Na+] (some centres undefined) ), measured IC50 is 46000 nM
